Collected DR/DR AA values appear next to each entry.
Experiment: Probe fluorescence ratio response to arachidonic acid relative to ADIFAB2
Type: binding
Settings: arachidonic acid; response relative to ADIFAB2
// no unit string in output, number only

The examples below pair each entry with its known result.
MOLECULE	EXPERIMENTAL_READOUT	VALUE_OBSERVED
18L 73L 72A (protein, listed as Rattus norvegicus, PEPTIDE (1)...(131) wild-type rat intestinal fatty acid binding protein) AFDGTWKVDRNENYEKFLEKMGINVVKRKLGAHDNLKLTITQEGNKFTVKESSNFRNIDVVFELGVDFAYSALDGTELTGTWTMEGNKLVGKFKRVDNGKELIAVREISGNELIQTYTYEGVEAKRIFKKE	DR/DR AA	0.441
72G 74F (protein, listed as Rattus norvegicus, PEPTIDE (1)...(131) wild-type rat intestinal fatty acid binding protein) AFDGTWKVDRNENYEKFMEKMGINVVKRKLGAHDNLKLTITQEGNKFTVKESSNFRNIDVVFELGVDFAYSGAFGTELTGTWTMEGNKLVGKFKRVDNGKELIAVREISGNELIQTYTYEGVEAKRIFKKE	DR/DR AA	1.669
102Q, 72A (protein, listed as Rattus norvegicus, PEPTIDE (1)...(131) wild-type rat intestinal fatty acid binding protein) AFDGTWKVDRNENYEKFMEKMGINVVKRKLGAHDNLKLTITQEGNKFTVKESSNFRNIDVVFELGVDFAYSAADGTELTGTWTMEGNKLVGKFKRVDNGKEQIAVREISGNELIQTYTYEGVEAKRIFKKE	DR/DR AA	0.62
38I 74F 72A (protein, listed as Rattus norvegicus, PEPTIDE (1)...(131) wild-type rat intestinal fatty acid binding protein) AFDGTWKVDRNENYEKFMEKMGINVVKRKLGAHDNLKITITQEGNKFTVKESSNFRNIDVVFELGVDFAYSAAFGTELTGTWTMEGNKLVGKFKRVDNGKELIAVREISGNELIQTYTYEGVEAKRIFKKE	DR/DR AA	0.787

In: Give reported DR/DR AA value for 73Y, 72A (protein, listed as Rattus norvegicus, PEPTIDE (1)...(131) wild-type rat intestinal fatty acid binding protein) AFDGTWKVDRNENYEKFMEKMGINVVKRKLGAHDNLKLTITQEGNKFTVKESSNFRNIDVVFELGVDFAYSAYDGTELTGTWTMEGNKLVGKFKRVDNGKELIAVREISGNELIQTYTYEGVEAKRIFKKE
Out: 1.529

In: Give reported DR/DR AA value for 36P, 72A (protein, listed as Rattus norvegicus, PEPTIDE (1)...(131) wild-type rat intestinal fatty acid binding protein) AFDGTWKVDRNENYEKFMEKMGINVVKRKLGAHDNPKLTITQEGNKFTVKESSNFRNIDVVFELGVDFAYSAADGTELTGTWTMEGNKLVGKFKRVDNGKELIAVREISGNELIQTYTYEGVEAKRIFKKE
Out: 0.32

In: Give reported DR/DR AA value for 72G 73W 74E (protein, listed as Rattus norvegicus, PEPTIDE (1)...(131) wild-type rat intestinal fatty acid binding protein) AFDGTWKVDRNENYEKFMEKMGINVVKRKLGAHDNLKLTITQEGNKFTVKESSNFRNIDVVFELGVDFAYSGWEGTELTGTWTMEGNKLVGKFKRVDNGKELIAVREISGNELIQTYTYEGVEAKRIFKKE
Out: 4.229

In: Give reported DR/DR AA value for 78V, 72A (protein, listed as Rattus norvegicus, PEPTIDE (1)...(131) wild-type rat intestinal fatty acid binding protein) AFDGTWKVDRNENYEKFMEKMGINVVKRKLGAHDNLKLTITQEGNKFTVKESSNFRNIDVVFELGVDFAYSAADGTEVTGTWTMEGNKLVGKFKRVDNGKELIAVREISGNELIQTYTYEGVEAKRIFKKE
Out: 1.093

In: Give reported DR/DR AA value for 60K, 72A (protein, listed as Rattus norvegicus, PEPTIDE (1)...(131) wild-type rat intestinal fatty acid binding protein) AFDGTWKVDRNENYEKFMEKMGINVVKRKLGAHDNLKLTITQEGNKFTVKESSNFRNIDKVFELGVDFAYSAADGTELTGTWTMEGNKLVGKFKRVDNGKELIAVREISGNELIQTYTYEGVEAKRIFKKE
Out: 0.461

In: Give reported DR/DR AA value for 72S 73M 74A (protein, listed as Rattus norvegicus, PEPTIDE (1)...(131) wild-type rat intestinal fatty acid binding protein) AFDGTWKVDRNENYEKFMEKMGINVVKRKLGAHDNLKLTITQEGNKFTVKESSNFRNIDVVFELGVDFAYSSMAGTELTGTWTMEGNKLVGKFKRVDNGKELIAVREISGNELIQTYTYEGVEAKRIFKKE
Out: 2.759

In: Give reported DR/DR AA value for 14G, 72A (protein, listed as Rattus norvegicus, PEPTIDE (1)...(131) wild-type rat intestinal fatty acid binding protein) AFDGTWKVDRNENGEKFMEKMGINVVKRKLGAHDNLKLTITQEGNKFTVKESSNFRNIDVVFELGVDFAYSAADGTELTGTWTMEGNKLVGKFKRVDNGKELIAVREISGNELIQTYTYEGVEAKRIFKKE
Out: 0.43
